substrate: vinyl acetate; details: pH 7; 25 °C
Listed proteins paired with reported kcat/Km
Could you give the number and then its unit, please?

Protein	kcat/Km
unnamed (protein) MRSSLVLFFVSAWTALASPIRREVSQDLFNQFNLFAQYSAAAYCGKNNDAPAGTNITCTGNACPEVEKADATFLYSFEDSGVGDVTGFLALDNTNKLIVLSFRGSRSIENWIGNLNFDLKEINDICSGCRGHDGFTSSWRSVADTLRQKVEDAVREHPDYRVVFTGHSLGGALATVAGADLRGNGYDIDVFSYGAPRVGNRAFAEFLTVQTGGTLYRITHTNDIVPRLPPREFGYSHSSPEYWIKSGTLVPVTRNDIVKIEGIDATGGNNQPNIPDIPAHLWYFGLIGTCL	1630 M⁻¹ s⁻¹
unnamed (protein) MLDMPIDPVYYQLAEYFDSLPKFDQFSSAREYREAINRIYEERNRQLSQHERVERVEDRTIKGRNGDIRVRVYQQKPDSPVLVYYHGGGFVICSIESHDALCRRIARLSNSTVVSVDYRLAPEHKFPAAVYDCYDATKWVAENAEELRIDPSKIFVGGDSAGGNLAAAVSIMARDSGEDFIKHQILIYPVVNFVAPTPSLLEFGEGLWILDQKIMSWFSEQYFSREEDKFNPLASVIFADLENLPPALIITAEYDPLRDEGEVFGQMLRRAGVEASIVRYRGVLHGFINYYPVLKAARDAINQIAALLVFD	12500 M⁻¹ s⁻¹

Let us move to another entry and its kcat/Km.
I'd like to know its kcat/Km. The protein in question is unnamed (protein) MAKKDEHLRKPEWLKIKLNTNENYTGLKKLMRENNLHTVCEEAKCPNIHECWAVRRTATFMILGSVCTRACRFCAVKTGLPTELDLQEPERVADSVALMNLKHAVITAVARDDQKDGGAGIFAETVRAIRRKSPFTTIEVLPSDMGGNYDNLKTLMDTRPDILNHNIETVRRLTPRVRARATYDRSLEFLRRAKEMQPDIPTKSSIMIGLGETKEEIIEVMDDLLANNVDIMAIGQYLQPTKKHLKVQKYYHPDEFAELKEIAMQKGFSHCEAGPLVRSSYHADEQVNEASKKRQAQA
357 M⁻¹ s⁻¹
